readoutType: melting point

INSERT INTO assay_data (compound, recordedvalue) VALUES
  ('N#Cc1cccc(CN2CCN(c3ccc(NC(=O)c4ccccc4OCc4ccc(C(F)(F)F)cc4)cc3)CC2)c1 [Example 27]', '190 to 191 °C'),
  ('N#Cc1cccc(CN2CCN(c3ccc(NC(=O)c4ccccc4OCCC4CCCCC4)cc3)CC2)c1 [Example 32]', '119 to 121 °C'),
  ('COC(=O)c1cccc(CN2CCN(c3ccc(NC(=O)c4ccccc4-c4ccc(C(F)(F)F)cc4)cc3)CC2)c1 [Example 55]', '190 to 192 °C');

Identify measured melting point associated with O=C(Nc1ccc(N2CCN(Cc3c[nH]c4ccc(F)cc34)CC2)cc1)c1ccccc1-c1ccc(C(F)(F)F)cc1 [Example 73]
168 to 170 °C

Identify measured melting point associated with `N#Cc1cccc(CN2CCN(c3ccc(NC(=O)c4ccccc4-c4cccc(C(F)(F)F)c4)cc3)CC2)c1`
117 to 121 °C

Give the value of melting point reported for the following: CC(=O)N1CCN(c2ccc(NC(=O)c3ccccc3-c3ccc(C(F)(F)F)cc3)cc2)CC1 [Example 81]
175 to 176.5 °C

Identify measured melting point corresponding to Cc1cccc(C(=O)Nc2ccc(N3CCN(CC(N)=O)CC3)cc2)c1-c1ccc(C(F)(F)F)cc1 [Example 40]
196 to 198 °C

# return recorded melting point for input O=C(Nc1ccc(N2CCN(Cc3cc[nH]n3)CC2)cc1)c1ccccc1-c1ccc(C(F)(F)F)cc1 [Example 71]
194 to 196 °C

Supply melting point value. Item: Cc1ccc(C(=O)Nc2ccc(N3CCN(Cc4cccc(C#N)c4)CC3)cc2)c(-c2ccc(C(C)C)cc2)c1 [Example 2]
167 to 169 °C

Determine from records and report melting point for `COc1ccc(-c2ccc(C(F)(F)F)cc2)c(C(=O)Nc2ccc(N3CCN(Cc4cccc(C#N)c4)CC3)cc2)c1`
151 to 155 °C

###

Listed next: entries and their corresponding melting point.

Answer with the recorded melting point for the compound listed here: `Cn1ccnc1CN1CCN(c2ccc(NC(=O)c3ccccc3-c3ccc(C(F)(F)F)cc3)cc2)CC1`
118 to 120 °C

###

Known melting point of a selection of compounds
Reply with just the number (in °C).

INSERT INTO results (chemicalstring, unitsofmeasure, recordedvalue) VALUES
  ('N#Cc1cccc(CN2CCN(c3ccc(NC(=O)c4ccccc4-n4cccc4)cc3)CC2)c1', '°C', 174);

Shifting focus to the compound that follows.
Tell me melting point reported for `Cc1cccc(C(=O)Nc2ccc(N3CCN(Cc4cccc(C#N)c4)CC3)cc2)c1-c1ccc(C(F)(F)F)cc1`
192

###

Listed molecules paired with reported melting point

Below, 5 molecules whose answers are already recorded.
INSERT INTO results (molecule, recordedvalue) VALUES
  ('Cc1ccc(-c2ccccc2C(=O)Nc2ccc(N3CCN(Cc4cccc(C#N)c4)CC3)cc2)c(C)c1', '72 to 76 °C'),
  ('O=C(NCC(F)(F)F)c1cccc(CN2CCN(c3ccc(NC(=O)c4ccccc4-c4ccc(C(F)(F)F)cc4)cc3)CC2)c1', '205 to 207 °C'),
  ('CCOC(=O)CN1CCN(c2ccc(NC(=O)c3ccccc3-c3ccc(C(F)(F)F)cc3)cc2)CC1', '167 to 169 °C'),
  ('COc1ccc(C(=O)Nc2ccc(N3CCN(Cc4cccc(C#N)c4)CC3)cc2)c(-c2ccccc2)c1', '159 to 161 °C'),
  ('O=C(Nc1ccc(N2CCN(Cc3nccs3)CC2)cc1)c1ccccc1-c1ccc(C(F)(F)F)cc1 (hydrate or solvate)', '187 to 189 °C');

Dear colleague, please send me the reported melting point for `CC(C)c1ccc(-c2ccccc2C(=O)Nc2ccc(N3CCN(Cc4cccc(C#N)c4)CC3)cc2)cc1` when you can.
133 to 135 °C

Recall and state the measured melting point for `COc1ccc(-c2ccc(C(C)C)cc2)c(C(=O)Nc2ccc(N3CCN(CC(N)=O)CC3)cc2)c1` .
207 to 209 °C
